Origin of measurements: patent US9144239B2

The following molecules are listed with their measured melting point values.

COc1ccc(O[C@H]2COC[C@H](N)C(=O)O[C@@H](C)[C@@H]2OC(=O)C(C)C)cc1.Cl 197 to 198 °C
CCCCO[C@H]1COC[C@H](N)C(=O)O[C@@H](C)[C@@H]1OCc1ccccc1.Cl 174 to 177 °C
COc1ccnc(C(=O)N[C@H]2COC[C@H](OC(=O)C(C)C)[C@@H](OC(=O)C(C)C)[C@H](C)OC2=O)c1O 111 to 113 °C

Query block: Would you mind telling me what melting point value was observed for "COc1ccnc(C(=O)N[C@H]2COC[C@H](OCC3CC3)[C@@H](OCC3CC3)[C@H](C)OC2=O)c1O" ?
Result block: 114 to 117 °C

Query block: Request: "CCCO[C@H]1[C@H](C)OC(=O)[C@@H](N)COC[C@@H]1Oc1ccccc1.Cl"
Result block: 217 to 219 °C

Query block: Thanks! And "COc1ccnc(C(=O)N[C@@H]2COC[C@H](OCC(C)C)[C@@H](OCC(C)C)COC2=O)c1O" ?
Result block: 92 to 97 °C

Query block: And what about the molecule "CC(C)CO[C@H]1COC[C@H](N)C(=O)O[C@@H](C)[C@@H]1Oc1cccc(Cl)c1.Cl" ?
Result block: 168 to 169 °C

Query block: Same again, this time with "CCCCO[C@H]1COC[C@H](NC(=O)c2nccc(OC)c2O)C(=O)O[C@@H](C)[C@@H]1OCC(F)F"
Result block: 127 to 129 °C
